Quick list: IC50 per entry.
# target.desc: recombinant sEH (soluble epoxide hydrolase, EPHX2) (Homo sapiens (Human))
# experimental.protocol: biochemical fluorometric sEH inhibition assay with Phome substrate
# conditions: recombinant sEH purified from Sf9 insect cells, 2 nM sEH, 5 μM Phome, 60 minutes at 30° C.
measured.quantity: IC50 (nM)

>>> measured("O=C(NCc1ccc(Cl)cc1Cl)c1ccc(CN2CCN(C(=O)C3Cc4ccccc43)CC2)s1 (centres unmarked) [Example 70]")
2.62
>>> measured("CC(C)(O)C(=O)N1CCN(Cc2ncc(C(=O)NCc3ccc(Cl)cc3Cl)s2)CC1 [Example 172]")
10.8
>>> measured("COc1ccc(OC)c(C(=O)N2CCN(Cc3ccc(C(=O)NCc4ccccc4OC(F)(F)F)s3)CC2)n1 [Example 67]")
1.21
>>> measured("COCCCC(=O)N1CCN(Cc2ncc(C(=O)NCc3ccc(Cl)cc3Cl)s2)CC1 [Example 166]")
21.3
>>> measured("O=C(NCc1ccc(Cl)cc1Cl)c1ccc(CN2CCN(C(=O)c3ccccc3F)CC2)s1 [Example 131]")
2.13
>>> measured("O=C(NCc1ccccc1OC(F)(F)F)c1ccc(CN2CCN(CC(F)(F)F)C(=O)C2)s1 [Example 111]")
2.23
>>> measured("O=C(NCc1ccc(Cl)cc1Cl)c1cnc(CN2CCN(C(=O)C3(O)CC3)CC2)s1 [Example 201]")
6.37
>>> measured("Cc1ccc(C(=O)N2CCN(Cc3ccc(C(=O)NCc4ccc(Cl)cc4Cl)s3)CC2)s1 [Example 154]")
2.05

====

# target.desc: recombinant sEH (soluble epoxide hydrolase, EPHX2) (Homo sapiens (Human), UniProt P34913)
# Sequence (P34913 whole entry): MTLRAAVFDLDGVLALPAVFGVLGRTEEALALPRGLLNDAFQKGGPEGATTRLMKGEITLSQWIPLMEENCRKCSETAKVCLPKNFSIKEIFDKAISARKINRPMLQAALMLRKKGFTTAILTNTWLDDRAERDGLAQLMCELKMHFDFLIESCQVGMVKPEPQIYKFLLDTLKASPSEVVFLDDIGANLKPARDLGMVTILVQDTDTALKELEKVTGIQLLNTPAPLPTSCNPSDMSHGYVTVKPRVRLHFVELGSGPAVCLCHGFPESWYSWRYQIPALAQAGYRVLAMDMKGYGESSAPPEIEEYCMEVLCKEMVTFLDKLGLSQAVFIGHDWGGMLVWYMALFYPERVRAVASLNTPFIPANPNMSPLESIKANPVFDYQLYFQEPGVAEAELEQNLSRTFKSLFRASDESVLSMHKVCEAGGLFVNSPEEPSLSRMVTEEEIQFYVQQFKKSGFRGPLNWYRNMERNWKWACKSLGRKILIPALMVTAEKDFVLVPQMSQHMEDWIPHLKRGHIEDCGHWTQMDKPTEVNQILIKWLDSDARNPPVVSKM
# experimental.protocol: biochemical fluorometric sEH inhibition assay with Phome substrate
# conditions: recombinant sEH purified from Sf9 insect cells, 2 nM sEH, 5 μM Phome, 60 minutes at 30° C.
pIC50: −log10 of the molar value.
Quick list: pIC50 per entry.
measured.quantity: pIC50

>>> measured("Cc1cc(=O)oc(C)c1C(=O)N1CCN(Cc2ccc(C(=O)NCCC(C)(C)C)s2)CC1")
8.53
>>> measured("Cc1cc(C(=O)NCCC(C)(C)C)sc1CN1CCN(C(=O)c2c(C)cc(=O)oc2C)CC1 [Example 159]")
9.10
>>> measured("O=C(NCc1ccc(Cl)cc1Cl)c1ccc(CN2CCN(C(=O)c3cccnc3)CC2)s1")
8.85
>>> measured("CCC(C)(O)C(=O)N1CCN(Cc2ccc(C(=O)NCc3ccccc3OC(F)(F)F)s2)CC1 (centres unmarked)")
8.82
>>> measured("O=C(NCc1ccccc1OC(F)(F)F)c1ccc(CN2CCN(C(=O)N3CCCC3)CC2)s1")
9.16
>>> measured("Cc1noc(C)c1CC(=O)N1CCN(Cc2ncc(C(=O)NCc3ccc(Cl)cc3Cl)s2)CC1")
8.02
>>> measured("Cn1nc(C(C)(C)C)cc1C(=O)N1CCN(Cc2ccc(C(=O)NCc3ccccc3C(F)(F)F)s2)CC1")
8.56
>>> measured("O=C(NCc1ccccc1C(F)(F)F)c1ccc(CN2CCN(C(=O)c3ccccn3)CC2)s1")
9.27

====

# target.desc: recombinant sEH (soluble epoxide hydrolase, EPHX2) (Homo sapiens (Human), UniProt P34913)
# experimental.protocol: biochemical fluorometric sEH inhibition assay with Phome substrate
# conditions: recombinant sEH purified from Sf9 insect cells, 2 nM sEH, 5 μM Phome, 60 minutes at 30° C.
# Description: Compounds were tested in a biochemical screening assay using recombinant sEH purified from Sf9 insect cells and an artificial substrate, (3-phenyl-oxiranyl)-acetic acid cyano-(6-methoxy-naphtalen-2-yl)-methyl ester, Phome. […] Fluorescence is measured with any suitable detector for instance a TECAN Safire or Tecan Ultra at […]. % inhibition of recombinant sEH activity is used for calculation of corresponding IC50 values as illustrated and described in the examples. […]
pIC50: −log10 of the molar value.
Quick list: pIC50 per entry.
measured.quantity: pIC50

>>> measured("NC1(C(=O)N2CCN(Cc3ccc(C(=O)NCc4ccccc4OC(F)(F)F)s3)CC2)CCOCC1 [Example 145]")
8.73
>>> measured("CC1(C)OC(=O)CC1C(=O)N1CCN(Cc2ncc(C(=O)NCc3ccc(Cl)cc3Cl)s2)CC1 (stereo not shown) [Example 161]")
8.21
>>> measured("Cn1cccc1C(=O)N1CCN(Cc2ccc(C(=O)NCc3ccc(Cl)cc3Cl)s2)CC1 [Example 130]")
8.76
>>> measured("CNC(=O)c1cccnc1N1CCN(Cc2ccc(C(=O)NCc3ccc(Cl)cc3Cl)s2)CC1 [Example 14]")
8.53
